The entries below are paired with their reported IC50.
- System: Aβtotal produced and secreted into the medium of human neuroblastoma SKNBE2 cells
- test_details: Cellular αlisa assay in SKNBE2 cells, Aβtotal
- Assay type: cell-based
- condition: SKNBE2 expressing wild type hAPP695, incubated for 18 hours, read-out: Cellular αlisa assay in SKNBE2 cells Aβtotal pIC50 (converted)

{"molecule": "CN1CC(C)(c2cc(-c3cncnc3)c(F)cc2F)N=C(N)C1=O (stereo not drawn)", "IC50": "> 10 µM"}
{"molecule": "CN1CC(C)(c2cccc(-c3cncnc3)c2)N=C(N)C1=O (stereo not drawn)", "IC50": "> 10 µM"}

Now consider a different molecule.
Record CN1CC(C)(c2cc(-c3ccccc3)c(F)cc2F)N=C(N)C1=O (stereo not drawn) . Reported IC50: > 10 µM
